# assay_system: 5-HT2A (Homo sapiens, UniProt P28223)
# Construct: expressed in transfected cells; host or cells: HEK293T
# Sequence (P28223 whole entry): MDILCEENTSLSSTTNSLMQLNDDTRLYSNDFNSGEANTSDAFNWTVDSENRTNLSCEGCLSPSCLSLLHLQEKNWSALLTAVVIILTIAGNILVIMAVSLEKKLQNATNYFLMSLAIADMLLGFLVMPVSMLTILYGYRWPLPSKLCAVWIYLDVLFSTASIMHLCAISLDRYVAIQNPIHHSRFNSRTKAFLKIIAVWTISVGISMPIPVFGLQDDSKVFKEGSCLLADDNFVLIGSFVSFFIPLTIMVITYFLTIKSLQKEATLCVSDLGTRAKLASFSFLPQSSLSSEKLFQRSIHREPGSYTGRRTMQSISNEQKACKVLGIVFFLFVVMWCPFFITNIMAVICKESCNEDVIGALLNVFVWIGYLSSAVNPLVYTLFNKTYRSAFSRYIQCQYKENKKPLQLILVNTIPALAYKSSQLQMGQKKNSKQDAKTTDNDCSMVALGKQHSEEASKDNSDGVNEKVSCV
# experimental_protocol: Gq activation via Gq/γ1 dissociation BRET, 5-HT2A
# Assay type: cell-based
# assay_conditions: HEK-293T; HEK293T cells, Gq dissociation BRET2; normalized to % 5-HT stimulation
quantity_measured: Emax

Previously resolved entries follow.
*Q* Supply Emax value. Item: `CN1CC(c2csc3ccccc23)C1.Cl`
*A* < 50%

*Q* Using the record for `CN1CC=C(c2csc3cc(F)ccc23)C1` , state its measured Emax.
*A* < 50%

*Q* Item `C1=C(c2csc3ccccc23)CNC1` : provide Emax
*A* > 70%

*Q* Look up and report measured Emax for this entry: `C1=C(c2c[nH]c3ncccc23)CNC1`
*A* < 50%

*Q* Specify measured Emax for `CN1CC=C(c2csc3ccccc23)C1` .
*A* 50 to 70%

*Q* Please list Emax recorded for the compound Cl.c1ccc2c(C3CCNC3)csc2c1 (stereo not shown)
*A* 50 to 70%

---
*Q* Name the recorded Emax of the item `Fc1cnc2[nH]cc(C3=CCNC3)c2c1` in your answer.
*A* > 70%

----------
Record form. Attribute: pEC50. Fill in for each entry.
# assay_system: UniProt P28335
# Sequence (P28335 33-458): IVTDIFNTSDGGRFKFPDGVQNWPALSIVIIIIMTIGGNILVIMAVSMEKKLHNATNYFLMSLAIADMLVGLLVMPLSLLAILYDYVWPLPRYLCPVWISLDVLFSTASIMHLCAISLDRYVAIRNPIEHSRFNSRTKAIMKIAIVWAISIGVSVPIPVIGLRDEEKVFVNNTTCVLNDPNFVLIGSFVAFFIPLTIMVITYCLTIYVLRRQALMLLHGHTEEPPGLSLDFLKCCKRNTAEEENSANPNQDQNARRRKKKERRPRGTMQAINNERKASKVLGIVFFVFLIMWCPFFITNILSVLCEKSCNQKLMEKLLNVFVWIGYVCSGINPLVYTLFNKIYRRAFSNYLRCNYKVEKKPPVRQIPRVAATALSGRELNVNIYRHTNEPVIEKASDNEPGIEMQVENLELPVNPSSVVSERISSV
# experimental_protocol: Gq activation via Gq/γ1 dissociation BRET, 5-HT2C
pEC50: −log10 of the molar value.

*Q* Supply reported pEC50 belonging to this molecule: `C1=C(c2csc3ccccc23)CNC1`
*A* > 8.00

*Q* Specify pEC50 for `CN1CC=C(c2csc3ccccc23)C1` and stop.
*A* > 8.00

*Q* Give the value of pEC50 reported for the following: `CN1CC=C(c2csc3cc(F)ccc23)C1`
*A* 7.00 to 8.00

*Q* Dear colleague, please send me the reported pEC50 for `Fc1cnc2[nH]cc(C3=CCNC3)c2c1` when you can.
*A* 7.00 to 8.00

*Q* Consider the molecule Cl.c1ccc2c(C3CCNC3)csc2c1 (stereo not drawn) . State its measured pEC50.
*A* 7.00 to 8.00

Next:
*Q* Let me know recorded pEC50 for `CN1CC(c2csc3ccccc23)C1.Cl` , thanks.
*A* 7.00 to 8.00

----------
# assay_system: 5-HT2B (Homo sapiens, UniProt P41595)
# Construct: expressed in transfected cells; host or cells: HEK293T
# Sequence (P41595 whole entry): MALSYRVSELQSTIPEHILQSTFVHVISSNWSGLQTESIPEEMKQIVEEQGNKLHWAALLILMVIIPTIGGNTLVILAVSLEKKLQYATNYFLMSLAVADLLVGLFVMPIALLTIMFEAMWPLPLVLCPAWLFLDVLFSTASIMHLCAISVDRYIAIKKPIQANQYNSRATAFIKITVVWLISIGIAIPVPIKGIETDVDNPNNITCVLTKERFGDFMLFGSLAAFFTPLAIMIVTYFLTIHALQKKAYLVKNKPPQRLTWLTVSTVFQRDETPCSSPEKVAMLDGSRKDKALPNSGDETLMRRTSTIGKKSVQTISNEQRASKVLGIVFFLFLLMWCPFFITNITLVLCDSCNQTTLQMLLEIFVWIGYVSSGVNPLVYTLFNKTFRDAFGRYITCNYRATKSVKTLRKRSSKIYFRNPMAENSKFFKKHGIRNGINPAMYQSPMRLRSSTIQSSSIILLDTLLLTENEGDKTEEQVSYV
# experimental_protocol: Gq activation via Gq/γ1 dissociation BRET, 5-HT2B
# Type: cell-based
# assay_conditions: HEK-293T; HEK293T cells, Gq dissociation BRET2; normalized to % 5-HT stimulation; AT* = data suggests antagonistic effect at 5-HT2B (footnote)
quantity_measured: Emax

*Q* Respond only with Emax recorded for `CN1CC(c2csc3ccccc23)C1.Cl`
*A* < 50%

*Q* Give me measured Emax, please, for this molecule: `C1=C(c2c[nH]c3ncccc23)CNC1`
*A* < 50%

*Q* Give the value of Emax reported for the following: `CN1CC=C(c2csc3ccccc23)C1`
*A* < 50%

*Q* Note Emax for the molecule shown: Cl.c1ccc2c(C3CCNC3)csc2c1 (stereo not drawn)
*A* < 50%

*Q* Tell me its Emax given `Fc1cnc2[nH]cc(C3=CCNC3)c2c1` as the entry.
*A* > 70%

More entries:
*Q* For `C1=C(c2csc3ccccc23)CNC1` , write its Emax.
*A* < 50%
